# Hepatotoxicity (steatosis) per record follows
assay context: human
Just the number.

Reported Hepatotoxicity (steatosis) for CC[C@@H](CO)NCCN[C@@H](CC)CO was 0

====

assay context: human, serum
assay metric: Hepatotoxicity (acute)

Reported Hepatotoxicity (acute) for O=C(O)C1N=C(c2ccccc2)c2cc(Cl)ccc2NC1=O (configuration not stated) [CLORAZEPIC ACID] was 3

Reported Hepatotoxicity (acute) for N[C@@H](CSCC(=O)O)C(=O)O was 0

Reported Hepatotoxicity (acute) for O=C(O)Cc1nn(Cc2nc3cc(C(F)(F)F)ccc3s2)c(=O)c2ccccc12 was 0

Reported Hepatotoxicity (acute) for COc1ccc(CCN(C)CCCC(C#N)(c2cc(OC)c(OC)c(OC)c2)C(C)C)cc1OC (configuration not stated) was 0

Reported Hepatotoxicity (acute) for CC1(C)S[C@@H]2[C@H](N3C(=O)[C@@H](c4ccccc4)NC3(C)C)C(=O)N2[C@H]1C(=O)O was 1

New cases:
Reported Hepatotoxicity (acute) for FC(F)OC(Cl)C(F)(F)F (configuration not stated) was 25

Reported Hepatotoxicity (acute) for Nc1ccc(S(=O)(=O)c2ccc(N)cc2)cc1 was 33

====

assay context: human, serum
# Hepatotoxicity (acute) per record follows
Just the number.

Reported Hepatotoxicity (acute) for COC(=O)C(c1ccccc1)C1CCCCN1 (centres undefined) [METHYLPHENIDATE] was 4

New cases:
Reported Hepatotoxicity (acute) for CN(C)C(=N)N=C(N)N [METFORMIN] was 10

Reported Hepatotoxicity (acute) for CO[C@H]1/C=C/O[C@@]2(C)Oc3c(C)c(O)c4c(O)c(c5c(nc6cc(C)ccn65)c4c3C2=O)NC(=O)/C(C)=C\C=C\[C@H](C)[C@H](O)[C@@H](C)[C@@H](O)[C@@H](C)[C@H](OC(C)=O)[C@@H]1C [RIFAXIMIN] was 0

Reported Hepatotoxicity (acute) for Cc1cn([C@H]2C=C[C@@H](CO)O2)c(=O)[nH]c1=O [STAVUDINE] was 29

====

# Hepatotoxicity (acute) per record follows
method description: Highest frequency of acute liver toxicity observed during clinical trials, expressed as a percentage. [column '% AIGUE' in source]
assay context: human
Only the number, expressed in %, is required.

Reported Hepatotoxicity (acute) for O=C(NCCN1CCC(n2c(=O)[nH]c3cc(Cl)ccc32)CC1)c1ccc(F)cc1 [HALOPEMIDE] was 0

Reported Hepatotoxicity (acute) for CC(NN)c1ccccc1 (configuration not stated) was 0

Reported Hepatotoxicity (acute) for CC(Cc1ccccc1)NCc1ccccc1Cl (configuration not stated) was 0

Reported Hepatotoxicity (acute) for CC(S)C(=O)NCC(=O)O (configuration not stated) was 2.1

Reported Hepatotoxicity (acute) for O=c1[nH]c(=O)n([C@@H]2O[C@H](CO)[C@@H](O)[C@@H]2O)cc1/C=C/Br was 0

# input for lookup
Reported Hepatotoxicity (acute) for O=C(O)C1=C(C[n+]2ccc(CCS(=O)(=O)[O-])cc2)CS[C@@H]2[C@H](NC(=O)[C@H](NC(=O)c3[nH]cnc3C(=O)O)c3ccccc3)C(=O)N12 was 0

====

# Hepatotoxicity (time to onset) per record follows
method description: Times to onset, minimal and maximal, observed in the indexed observations. [column 'DELAI' in source]
assay context: human
*1 amine or outer side, *2 acyl side, *3 side chain or, on linkers, in order; H or OH if unused. Where a SMILES comes first, the peptide text is derived from it. Bridges are numbered along the chain shown (N, C = ends). Roman numbers before positions name the chains, in order. [ ]: non-standard residue; d: D form. Actinocin(9to1) = Cc1c2oc3c(C)ccc(C(=O)[*:1])c3nc-2c(C(=O)[*:2])c(N)c1=O; NMeV = CN[C@H](C(=O)O)C(C)C; Sar = CNCC(=O)O

A selection of reference data follows.
Reported Hepatotoxicity (time to onset) for COC(=O)C1=C(C)NC(C)=C(C(=O)OCCN(C)Cc2ccccc2)C1c1cccc([N+](=O)[O-])c1 (stereo not given) [NICARDIPINE] was 2 months

Reported Hepatotoxicity (time to onset) for Cc1c2oc3c(C)ccc(C(=O)N[C@@H]4C(=O)N[C@H](C(C)C)C(=O)N5CCC[C@H]5C(=O)N(C)CC(=O)N(C)[C@@H](C(C)C)C(=O)O[C@@H]4C)c3nc-2c(C(=O)N[C@@H]2C(=O)N[C@H](C(C)C)C(=O)N3CCC[C@H]3C(=O)N(C)CC(=O)N(C)[C@@H](C(C)C)C(=O)O[C@@H]2C)c(N)c1=O [DACTINOMYCIN] (I: T[dV]P[Sar][NMeV] / II: T[dV]P[Sar][NMeV]; ester I:1-I:C, II:1-II:C; linker I:N-II:N via Actinocin(9to1)) was 3 weeks - 2 months

Reported Hepatotoxicity (time to onset) for CS(=O)(=O)c1ccc2c(c1)N(CCCN1CCC(C(N)=O)CC1)c1ccccc1S2 [METOPIMAZINE] was 1 month

Reported Hepatotoxicity (time to onset) for COCCCOc1ccnc(C[S+]([O-])c2nc3ccccc3[nH]2)c1C (stereo not given) [RABEPRAZOLE] was 4 weeks

# input for lookup
Reported Hepatotoxicity (time to onset) for CC(=O)CCCCn1c(=O)c2c(ncn2C)n(C)c1=O [PENTOXIFYLLINE] was 3 weeks

====

method description: Proposed mechanism(s) of liver damage. [column 'MEC' in source]
assay context: human
assay metric: Hepatotoxicity (mechanism)

A selection of reference data follows.
Reported Hepatotoxicity (mechanism) for STIBOGLUCONATE was Dose-dependant

Reported Hepatotoxicity (mechanism) for INTERFERON GAMMA-1A was Dose-dependant

Reported Hepatotoxicity (mechanism) for PEGLOTICASE was Dose-dependant

Reported Hepatotoxicity (mechanism) for ALDESLEUKIN was Allergic, Dose-dependant

New cases:
Reported Hepatotoxicity (mechanism) for INTERLEUKIN 6 was Dose-dependant

Reported Hepatotoxicity (mechanism) for ASPARAGINASE was Dose-dependant

Reported Hepatotoxicity (mechanism) for INTERFERON ALFA-2A was Allergic, Dose-dependant

Reported Hepatotoxicity (mechanism) for GEMTUZUMAB OZOGAMICIN was Dose-dependant

Reported Hepatotoxicity (mechanism) for NADROPARIN CALCIUM was Dose-dependant

====

method description: Times to onset, minimal and maximal, observed in the indexed observations. [column 'DELAI' in source]
assay context: human
# Hepatotoxicity (time to onset) per record follows

Reported Hepatotoxicity (time to onset) for N=C(N)c1ccc(/C=C/c2ccc(C(=N)N)cc2)cc1 was 1 month - 3 months

New cases:
Reported Hepatotoxicity (time to onset) for CN(C)C/C=C(/c1ccc(Br)cc1)c1cccnc1 was 2 weeks - 2 months

Reported Hepatotoxicity (time to onset) for CCOC(=O)n1ccn(C)c1=S was 1 day - 5 years

Reported Hepatotoxicity (time to onset) for CN(C)CCC=C1c2ccccc2COc2ccccc21 [DOXEPIN] was 1 week

Reported Hepatotoxicity (time to onset) for Cc1c(-c2ccccc2)oc2c(C(=O)OCCN3CCCCC3)cccc2c1=O [FLAVOXATE] was 2.5 months

====

method description: Comments (NB not yet translated). [column 'COMMENTAIRES' in source]
assay context: human
assay metric: Hepatotoxicity (comment)

A selection of reference data follows.
Reported Hepatotoxicity (comment) for CCN1CCN(C(=O)N[C@@H](C(=O)N[C@@H]2C(=O)N3[C@@H]2SC(C)(C)[C@@H]3C(=O)O)c2ccccc2)C(=O)C1=O [PIPERACILLIN] was CHOLANGITE

Reported Hepatotoxicity (comment) for CCc1cccc2c3c([nH]c12)C(CC)(CC(=O)O)OCC3 (stereo not drawn) [ETODOLAC] was AC_ANTI-N/-ML

Reported Hepatotoxicity (comment) for CSc1ccc2c(c1)N(CCC1CCCCN1C)c1ccccc1S2 (stereo not drawn) [THIORIDAZINE] was RC/CHLORPROMAZINE

Reported Hepatotoxicity (comment) for O=C(c1ccc(OCCN2CCCCC2)cc1)c1c(-c2ccc(O)cc2)sc2cc(O)ccc12 [RALOXIFENE] was CHOLESTASE_PROLONGEE

Reported Hepatotoxicity (comment) for CC[C@H]1OC(=O)[C@H](C)[C@@H](O[C@H]2C[C@@](C)(OC)[C@@H](O)[C@H](C)O2)[C@H](C)[C@@H](O[C@@H]2O[C@H](C)C[C@H](N(C)C)[C@H]2O)[C@](C)(O)C[C@@H](C)CN(C)[C@H](C)[C@@H](O)[C@]1(C)O [AZITHROMYCIN] was CHOLANGITE

Reported Hepatotoxicity (comment) for Cc1ccc(O)c2ncccc12 [TILIQUINOL] was CHOLANGITE

Reported Hepatotoxicity (comment) for CN(C)CCCN1c2ccccc2Sc2ccccc21 [PROMAZINE] was RC/CHLORPROMAZINE

Reported Hepatotoxicity (comment) for CO/N=C(\C(=O)N[C@@H]1C(=O)N2C(C(=O)O)=C(CSc3nnnn3C)CS[C@H]12)c1csc(N)n1 [CEFMENOXIME] was CHOLESTASE_PROLONGEE

New cases:
Reported Hepatotoxicity (comment) for CCCCC1=NC2(CCCC2)C(=O)N1Cc1ccc(-c2ccccc2-c2nnn[nH]2)cc1 [IRBESARTAN] was CHOLESTASE_PROLONGEE

Reported Hepatotoxicity (comment) for Cc1cccc(C)c1NC(=O)C(C)N (stereo not drawn) [TOCAINIDE] was AC_ANTI-N/-ML

Reported Hepatotoxicity (comment) for CC(=O)[C@H]1CC[C@H]2[C@@H]3CCC4=CC(=O)CC[C@]4(C)[C@H]3CC[C@]12C [PROGESTERONE] was HNF
